# assay.remarks: SkQ1 concentration in rabbit cornea after SkQ1-supplemented contact lens (Example 3)
# Type: in vivo
# condition.notes: rabbit, cornea, topical, 30 min after lens placement; average of 2 samples; read-out: SkQ1 Aver. nM in cornea
# Experimental: The experiment was performed as follows: contact lenses were supplemented with SkQ1 as described in Example 2, then some lenses were placed on rabbit eyes and some lenses left aside in saline solution. […] Then SkQ1 was extracted from the collected lenses and cornea samples using 50% acetonitrile solution and the SkQ1 amount in the extracts was determined using LCMS/MS.
recorded.endpoint: concentration at 30 min (nM)
API: value field is a number in nM; no unit string.

Query string: Which concentration at 30 min reading was recorded for the compound CC1=C(C)C(=O)C(CCCCCCCCCC[P+](c2ccccc2)(c2ccccc2)c2ccccc2)=CC1=O [SkQ1] ?
Result string: 5.59
